experiment: protein stability index of a GFP-peptide fusion (yeast GPS) (PSI 1-4); higher = more stable; sorted into four equal gates, so the index is relative within each strain; conditions: san1∆
value-kind: protein stability index

Observe how each entry below is paired with its result.
1. LGIALIALGEDIGKEMS [RPN1] ... 2.9
2. MAIEIINDIRDDDIEKQ [YCG1] ... 3.19
3. LFPEQQNKEIKAERVED [RPL6A] ... 3.59
4. LKEYQSKIIVFPRNGKA [RPL13A] ... 2.98
5. SYIGTIIVKDKSNDSEG [POP1] ... 1.45

// sample LTFQPQQQTNALNGIDI [GRR1] , its protein stability index was 3.02

// sample SGDREVQRTMLELLNQL [RPT5] , its protein stability index was 3.12

// sample PTIEYVQCPTVIKLAKY [ARP9] , its protein stability index was 1.75
